Source of measurements: patent US8426587B2

Molecular target: Mouse SSAO/VAP-1 (Mus musculus)
Construct: Adipocytes were used as an SSAO source either as adherent cells or as a homogenate; endogenous in cells; host or cells: 3T3-L1 murine fibroblasts (ATCC) differentiated into adipocytes
Sequence (O70423 1-765): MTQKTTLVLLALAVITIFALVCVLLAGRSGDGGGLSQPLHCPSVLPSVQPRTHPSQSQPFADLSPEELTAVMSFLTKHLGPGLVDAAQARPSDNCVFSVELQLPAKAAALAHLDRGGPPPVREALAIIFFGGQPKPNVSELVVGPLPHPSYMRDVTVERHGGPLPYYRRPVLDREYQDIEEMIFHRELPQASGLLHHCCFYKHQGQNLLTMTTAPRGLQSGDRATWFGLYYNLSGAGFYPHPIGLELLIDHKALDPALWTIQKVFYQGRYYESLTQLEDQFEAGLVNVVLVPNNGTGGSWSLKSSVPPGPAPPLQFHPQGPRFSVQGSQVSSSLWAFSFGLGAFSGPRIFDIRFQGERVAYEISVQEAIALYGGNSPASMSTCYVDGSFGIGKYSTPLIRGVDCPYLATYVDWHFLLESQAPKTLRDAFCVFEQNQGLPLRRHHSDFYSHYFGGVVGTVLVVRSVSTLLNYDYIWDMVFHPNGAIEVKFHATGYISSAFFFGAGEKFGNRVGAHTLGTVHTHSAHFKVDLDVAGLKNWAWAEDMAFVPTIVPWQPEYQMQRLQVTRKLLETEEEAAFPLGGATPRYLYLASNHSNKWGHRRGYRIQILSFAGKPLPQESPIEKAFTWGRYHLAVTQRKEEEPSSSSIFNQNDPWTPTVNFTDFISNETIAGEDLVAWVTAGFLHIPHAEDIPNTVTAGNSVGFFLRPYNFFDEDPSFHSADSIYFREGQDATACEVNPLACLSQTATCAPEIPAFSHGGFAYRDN
Test: Inhibition of amine oxidase activity of mouse SSAO/VAP-1 (3T3-L1 adipocytes, Amplex Red)
Type: biochemical
Conditions: 3T3-L1 adipocyte SSAO, 40 μM benzylamine
Procedure: 3T3-L1 Murine fibroblasts were purchased from the American Type Culture Collection (ATCC, Rockville, Md.). […] To prepare homogenate, 10 cm dishes of adipocytes were washed with HES buffer (20 mM HEPES, 1 mM EDTA, 250 mM sucrose, pH 7.4) and scraped in HES buffer containing 10 μg/mL leupeptin, 10 μM pepstatin and 1 mM PMSF. […] Protein concentration of the supernatant was measured using a BCA assay according to the manufacturer's instructions. […]
pIC50: −log10 of the molar value.
Readout name: pIC50

# Compound, Test target, Reading
measured = [
    ("NC/C(=C/F)CCc1ccc(F)cc1 [Mofegiline, reference compound]", "Mouse SSAO/VAP-1 (Mus musculus)", 9.00),
]
